B1: library; numbered along this chain (parent)
chain: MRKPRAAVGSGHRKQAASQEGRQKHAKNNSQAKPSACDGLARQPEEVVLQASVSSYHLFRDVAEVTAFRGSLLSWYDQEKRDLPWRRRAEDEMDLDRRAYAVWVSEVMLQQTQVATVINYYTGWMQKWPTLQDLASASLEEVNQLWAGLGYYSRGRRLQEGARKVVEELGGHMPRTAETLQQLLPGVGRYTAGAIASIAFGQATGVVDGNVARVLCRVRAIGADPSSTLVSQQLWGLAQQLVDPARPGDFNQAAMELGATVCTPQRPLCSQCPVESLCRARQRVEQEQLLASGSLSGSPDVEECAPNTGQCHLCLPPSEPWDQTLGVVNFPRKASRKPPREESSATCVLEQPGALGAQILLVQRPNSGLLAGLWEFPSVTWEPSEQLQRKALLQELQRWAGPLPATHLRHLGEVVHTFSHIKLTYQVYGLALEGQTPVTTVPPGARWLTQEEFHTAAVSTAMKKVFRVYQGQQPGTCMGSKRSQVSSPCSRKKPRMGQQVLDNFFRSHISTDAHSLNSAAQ

# Variants of: B1
# Assay Comment: 8OG:A repair function score (normalized; synonymous = 0, nonsense = -1) (normalized log-likelihood score); higher = more repair activity (WT-like);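 note: cells sorted at 72 h after reporter transfection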
# Settings: with 8OG:A DNA repair reporter (GFP) in HEK-293 MUTYH KO cells
Short version: 8OG:A repair function score at least -0.09 is Met, less is Not met.

Please review the following examples before continuing.
S105R = Not met
V485M = Met
R409M = Not met

Alright, here's another variant for you.
Dear colleague, could you confirm whether `L215R` has 8OG:A repair function score at or above -0.09? Not met
